Data provenance: PubChem BioAssay (NCI)

- Tested on: NCI-H522 lung
- protocolSummary: NCI-60 one-dose screen, 48 h (100 = growth as untreated, 0 = no growth, -100 = all killed)
- settings: 10 µM unless noted
This is part of a sample that, as a whole, favours compounds with a hit. Of some 83,000 tested, about 20% had one in any assay. Activity calls are given as the source filed them. The calls were made as follows: active = growth percent below 10; inactive = the rest.
Some compounds, each annotated with its measured growth.

Some compounds with known growth results, for comparison:
Need growth of Cc1c(-c2noc(-c3ccc([N+](=O)[O-])cc3)n2)no[n+]1[O-] , thanks.
102% (inactive)

Need growth of O=C(Nc1ccc(N2CCNCC2)cn1)c1[nH]ncc1Nc1ncnc2sc3c(c12)CCC3 , thanks.
35.9% (inactive)

Need growth of O=c1oc2ccc(Br)cc2c(=O)n1-c1ccc(Cl)cc1F , thanks.
-1.53% (active)

Need growth of COc1ccc(/C=C/C(=O)c2ccc3cc(OC)c(OC)cc3c2)cc1OC , thanks.
31.9% (inactive)

Further cases:
Need growth of COc1nc2c(c(=O)n1C)N=C1c3ccccc3C(=O)C1C(c1ccccc1)N2 (centres undefined) , thanks.
102% (inactive)

Need growth of O=C(NCc1ccccc1)C1CN(c2ccc(Cl)cc2)N(c2ccc(Cl)cc2)C1=O (centres undefined) , thanks.
65.6% (inactive)

Need growth of O=c1c(-c2nc3ccccc3[nH]2)cc2ccccc2n1Cc1cn(Cc2ccccc2Cl)nn1 , thanks.
45.1% (inactive)

Need growth of c1ccc2c(c1)oc1cc3sccc3nc12 , thanks.
93% (inactive)

Need growth of O=C(/C=C/c1cccc(Cl)c1)OCc1ccc2cc1OCC#C/C=C\C#CCO2 , thanks.
83.2% (inactive)

Need growth of CCOc1cc2c(cc1OCC)C(c1cc(C)c(O)c(C)c1)NCC2 (centres undefined) , thanks.
91% (inactive)

Need growth of CN(C)c1ccc(N=Cc2ccc(N3CCOCC3)cc2)cc1 , thanks.
42.4% (inactive)

Need growth of Nc1nc(-c2cnccn2)nn1-c1nc2ccccc2s1 , thanks.
88.4% (inactive)

Need growth of S=C1NC2(c3ccccc3)CCC(=S)N2c2ccccc21 (centres undefined) , thanks.
90.7% (inactive)

Need growth of C=C[C@@H]1CCC/C=C/[C@@H]2C[C@H](O)C[C@H]2[C@H](O)/C=C/C(=O)O1 , thanks.
-24.5% (active)
